# Measurement Description: Pharmacokinetic study in rats after oral administration of SYD extract and its single and combined TCM extracts (UPLC-MS/MS of plasma)
# Conditions: male, Sprague-Dawley, rat, plasma, po, 1.29 g/kg, MRT(0–t), rat plasma, oral AS extract 1.29 g/kg, n = 6
Measured Parameter: MRT last (h)
Report the value in h with no unit label.

-- ask # MRT last lookup, item O=C(/C=C/c1ccc(O)c(O)c1)O[C@@H]1C[C@](O)(C(=O)O)C[C@@H](O)[C@H]1O [Chlorogenic acid, chlorogenic acid]
-- reply 1.56

---

# Measurement Description: in vivo
# Conditions: male, Sprague-Dawley, rat, po, 8.25 g/kg, Tmax
Measured Parameter: Tmax

-- ask # Tmax lookup, item C=C[C@H]1[C@H](O[C@@H]2O[C@H](CO)[C@@H](O)[C@H](O)[C@H]2O)OC=C2C(=O)OCC[C@H]21 [Sweroside, sweroside]
-- reply 1.33 h

---

Here the recorded half-life is given for each entry.
# Measurement Description: Pharmacokinetic study in rats after oral administration of SYD extract and its single and combined TCM extracts (UPLC-MS/MS of plasma)
# Conditions: male, Sprague-Dawley, rat, plasma, po, 3.38 g/kg extract (6.67 g/kg as herbs), t1/2, rat plasma, oral SN + GU extract, n = 6
Reply with the number, then its unit.

Previously resolved entries follow.
-- ask # half-life lookup, item C[C@]1(OC(=O)/C=C/c2ccccc2)C[C@@H](O)[C@]2(O)C=CO[C@@H](O[C@@H]3O[C@H](CO)[C@@H](O)[C@H](O)[C@H]3O)[C@@H]21 [Harpagoside, harpagoside]
-- reply 18.3 h

-- ask And what about the molecule "O=C1C[C@@H](c2ccc(O[C@@H]3O[C@H](CO)[C@@H](O)[C@H](O)[C@H]3O)cc2)Oc2cc(O)ccc21" ?
-- reply 7.81 h

Continuing:
-- ask # half-life lookup, item COc1ccc(CCO[C@@H]2O[C@H](CO[C@@H]3OC[C@H](O)[C@H](O)[C@H]3O)[C@@H](OC(=O)/C=C/c3ccc(O)c(OC)c3)[C@H](O[C@@H]3O[C@@H](C)[C@H](O)[C@@H](O)[C@H]3O)[C@H]2O)cc1O [Angoroside C, angoroside C]
-- reply 9.91 h

---

# Measurement Description: Pharmacokinetic study in rats after oral administration of SYD extract and its single and combined TCM extracts (UPLC-MS/MS of plasma)
# Conditions: male, Sprague-Dawley, rat, plasma, po, 2.43 g/kg, Tmax, rat plasma, oral AS + GU extract 2.43 g/kg, n = 6
Here the recorded Tmax is given for each entry.
Report the value in min with no unit label.

-- ask # Tmax lookup, item "O=C(/C=C/c1ccc(O)c(O)c1)O[C@@H]1C[C@](O)(C(=O)O)C[C@@H](O)[C@H]1O"
-- reply 33

-- ask And what about the compound "O=C1C[C@@H](c2ccc(O[C@@H]3O[C@H](CO)[C@@H](O)[C@H](O)[C@H]3O)cc2)Oc2cc(O)ccc21" ?
-- reply 36

---

# Measurement Description: Pharmacokinetic study in rats after oral administration of SYD extract and its single and combined TCM extracts (UPLC-MS/MS of plasma)
# Conditions: male, Sprague-Dawley, rat, plasma, po, 3.29 g·kg^−1 extract, AUC(0–t), rat plasma, oral LJ + AS extract, n = 6
Measured Parameter: AUC(0-t) (ng·h/mL)
Report the value in ng·h/mL with no unit label.

-- ask # AUC(0-t) lookup, item COC(=O)C1=CO[C@@H](O[C@@H]2O[C@H](CO)[C@@H](O)[C@H](O)[C@H]2O)[C@@H]2[C@@H](C)[C@@H](O)C[C@H]12 [Loganin, loganin]
-- reply 1720

// moving on: another record for AUC(0-t)
-- ask # AUC(0-t) lookup, item O=C(/C=C/c1ccc(O)c(O)c1)O[C@@H]1C[C@](O)(C(=O)O)C[C@@H](O)[C@H]1O [Chlorogenic acid, chlorogenic acid]
-- reply 2820

---

Here the recorded MRT inf is given for each entry.
# Measurement Description: Pharmacokinetic study in rats after oral administration of SYD extract and its single and combined TCM extracts (UPLC-MS/MS of plasma)
# Conditions: male, Sprague-Dawley, rat, plasma, po, 2.14 g·kg^−1 (extract), MRT(0–∞), rat plasma, oral LJ + GU extract, n = 6
Report the value in h with no unit label.

Previously resolved entries follow.
-- ask # MRT inf lookup, item O=C(/C=C/c1ccc(O)c(O)c1)O[C@@H]1C[C@](O)(C(=O)O)C[C@@H](O)[C@H]1O [Chlorogenic acid, chlorogenic acid]
-- reply 65

-- ask And what about the molecule COC(=O)C1=CO[C@@H](O[C@@H]2O[C@H](CO)[C@@H](O)[C@H](O)[C@H]2O)[C@@H]2[C@@H](C)[C@@H](O)C[C@H]12 [Loganin, loganin] ?
-- reply 88.5

Continuing:
-- ask # MRT inf lookup, item O=C1C[C@@H](c2ccc(O[C@@H]3O[C@H](CO)[C@@H](O)[C@H](O)[C@H]3O)cc2)Oc2cc(O)ccc21 [Liquiritin, liquiritin]
-- reply 13.5

---

# Measurement Description: Pharmacokinetic study in rats after oral administration of SYD extract and its single and combined TCM extracts (UPLC-MS/MS of plasma)
# Conditions: male, Sprague-Dawley, rat, plasma, po, 3.38 g/kg extract (6.67 g/kg as herbs), Tmax, rat plasma, oral SN + GU extract, n = 6
Measured Parameter: Tmax (h)
Report the value in h with no unit label.

Previously resolved entries follow.
-- ask # Tmax lookup, item "O=C1C[C@@H](c2ccc(O[C@@H]3O[C@H](CO)[C@@H](O)[C@H](O)[C@H]3O)cc2)Oc2cc(O)ccc21"
-- reply 0.42

-- ask And what about the compound COc1ccc(CCO[C@@H]2O[C@H](CO[C@@H]3OC[C@H](O)[C@H](O)[C@H]3O)[C@@H](OC(=O)/C=C/c3ccc(O)c(OC)c3)[C@H](O[C@@H]3O[C@@H](C)[C@H](O)[C@@H](O)[C@H]3O)[C@H]2O)cc1O [Angoroside C, angoroside C] ?
-- reply 1.11

// moving on: another record for Tmax
-- ask # Tmax lookup, item C[C@]1(OC(=O)/C=C/c2ccccc2)C[C@@H](O)[C@]2(O)C=CO[C@@H](O[C@@H]3O[C@H](CO)[C@@H](O)[C@H](O)[C@H]3O)[C@@H]21 [Harpagoside, harpagoside]
-- reply 1.25

---

# Measurement Description: Pharmacokinetic study in rats after oral administration of SYD extract and its single and combined TCM extracts (UPLC-MS/MS of plasma)
# Conditions: male, Sprague-Dawley, rat, plasma, po, 4.73 g/kg, Tmax, rat plasma, oral LJ + SN + GU extract 4.73 g/kg, n = 6
Here the recorded Tmax is given for each entry.
Report the value in h with no unit label.

Previously resolved entries follow.
-- ask # Tmax lookup, item C[C@]1(OC(=O)/C=C/c2ccccc2)C[C@@H](O)[C@]2(O)C=CO[C@@H](O[C@@H]3O[C@H](CO)[C@@H](O)[C@H](O)[C@H]3O)[C@@H]21 [Harpagoside, harpagoside]
-- reply 1.79

-- ask And what about the compound COc1ccc(CCO[C@@H]2O[C@H](CO[C@@H]3OC[C@H](O)[C@H](O)[C@H]3O)[C@@H](OC(=O)/C=C/c3ccc(O)c(OC)c3)[C@H](O[C@@H]3O[C@@H](C)[C@H](O)[C@@H](O)[C@H]3O)[C@H]2O)cc1O [Angoroside C, angoroside C] ?
-- reply 1.29

-- ask And what about the compound "O=C1C[C@@H](c2ccc(O[C@@H]3O[C@H](CO)[C@@H](O)[C@H](O)[C@H]3O)cc2)Oc2cc(O)ccc21" ?
-- reply 0.88

// moving on: another record for Tmax
-- ask # Tmax lookup, item "COC(=O)C1=CO[C@@H](O[C@@H]2O[C@H](CO)[C@@H](O)[C@H](O)[C@H]2O)[C@@H]2[C@@H](C)[C@@H](O)C[C@H]12"
-- reply 1.5

---

Here the recorded AUC(0-inf) is given for each entry.
# Measurement Description: Pharmacokinetic study in rats after oral administration of SYD extract and its single and combined TCM extracts (UPLC-MS/MS of plasma)
# Conditions: male, Sprague-Dawley, rat, plasma, po, 4.5 g·kg^−1 extract, AUC(0–∞), rat plasma, oral LJ + SN extract, n = 6
Report the value in ng·h/mL with no unit label.

Previously resolved entries follow.
-- ask # AUC(0-inf) lookup, item COC(=O)C1=CO[C@@H](O[C@@H]2O[C@H](CO)[C@@H](O)[C@H](O)[C@H]2O)[C@@H]2[C@@H](C)[C@@H](O)C[C@H]12 [Loganin, loganin]
-- reply 5470

-- ask And what about the compound O=C(/C=C/c1ccc(O)c(O)c1)O[C@@H]1C[C@](O)(C(=O)O)C[C@@H](O)[C@H]1O [Chlorogenic acid, chlorogenic acid] ?
-- reply 4250

Continuing:
-- ask # AUC(0-inf) lookup, item COc1ccc(CCO[C@@H]2O[C@H](CO[C@@H]3OC[C@H](O)[C@H](O)[C@H]3O)[C@@H](OC(=O)/C=C/c3ccc(O)c(OC)c3)[C@H](O[C@@H]3O[C@@H](C)[C@H](O)[C@@H](O)[C@H]3O)[C@H]2O)cc1O [Angoroside C, angoroside C]
-- reply 400

-- ask And what about the compound C[C@]1(OC(=O)/C=C/c2ccccc2)C[C@@H](O)[C@]2(O)C=CO[C@@H](O[C@@H]3O[C@H](CO)[C@@H](O)[C@H](O)[C@H]3O)[C@@H]21 [Harpagoside, harpagoside] ?
-- reply 90
